# System: Pseudomonas tolaasii
# method-description: Antimicrobial activity against Pseudomonas tolaasii by serial dilution technique
# Format: functional
The label true (1) is reserved for MBC strictly under 0.8 µM; false (0) covers values equal to or above it.

compound	qualitative-label
CN[C@@H]1[C@H](O[C@H]2[C@H](O[C@H]3[C@H](O)[C@@H](O)[C@H](N=C(N)N)[C@@H](O)[C@@H]3N=C(N)N)O[C@@H](C)[C@]2(O)C=O)O[C@@H](CO)[C@H](O)[C@H]1O [STREPTOMYCIN]	false (0)
C=C[C@]1(C)C[C@H](O)[C@@H]2[C@H](OC(=O)[C@H]2C)[C@H]1C(=C)CO	false (0)
C[C@@H]1C(=O)O[C@H]2[C@H]1[C@@H](O)C[C@]1(C)[C@@H]2[C@@H](C=O)CC[C@H]1O	true (1)

Please look at the following compound next.
Lab note: confirm whether the reported MBC for this compound is below 0.8 µM, equality not counting. compound: C[C@@H]1C(=O)O[C@@H]2C3[C@H](C=O)CCC[C@]3(C)C[C@H](O)[C@@H]12 (stereo partly specified)
false (0)
